B1: FEM1A (parent)
chain: PCCSSSPEEPLNGESYESCCPTSR

- Variants of: B1
- assay notes: protein stability index of a GFP-peptide fusion (GPS, HEK-293T) (PSI 1-6); higher = more stable;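 also: lentivirally expressed fusions sorted by FACS into six bins by GFP to DsRed ratio, PSI derived from sequencing read proportions per bin multiplied by bin number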
- assay conditions: c terminus: a fixed tail appended
Reported protein stability index values for the following variants.
experimental endpoint: protein stability index

INSERT INTO assay_data (mutation_string, experimental_endpoint, test_result) VALUES
  ('T22R', 'protein stability index', 3.09),
  ('E17W', 'protein stability index', 1.72),
  ('S15W', 'protein stability index', 2.85),
  ('N12E', 'protein stability index', 4.42),
  ('S18V', 'protein stability index', 3.45),
  ('C2L', 'protein stability index', 4.75),
  ('N12H', 'protein stability index', 3.48),
  ('E8P', 'protein stability index', 3.47),
  ('C3E', 'protein stability index', 5.27),
  ('C2Y', 'protein stability index', 4.62),
  ('C20K', 'protein stability index', 3.31),
  ('C20A', 'protein stability index', 3.53),
  ('S5W', 'protein stability index', 3.02),
  ('T22Q', 'protein stability index', 4.21),
  ('P10H', 'protein stability index', 3.46),
  ('Y16H', 'protein stability index', 4.59),
  ('C20G', 'protein stability index', 3.25),
  ('C3H', 'protein stability index', 4.85),
  ('L11I', 'protein stability index', 3.72),
  ('E8C', 'protein stability index', 3.45),
  ('E9G', 'protein stability index', 3.67),
  ('T22N', 'protein stability index', 3.9),
  ('S4F', 'protein stability index', 3.33),
  ('P1R', 'protein stability index', 3.47),
  ('S4H', 'protein stability index', 4.21),
  ('G13D', 'protein stability index', 4.43),
  ('C2D', 'protein stability index', 5.12),
  ('S15E', 'protein stability index', 3.61),
  ('R24M', 'protein stability index', 4.6),
  ('E8Q', 'protein stability index', 3.4),
  ('R24W', 'protein stability index', 3.05),
  ('E9N', 'protein stability index', 3.64),
  ('G13W', 'protein stability index', 2.79),
  ('C3P', 'protein stability index', 4.95),
  ('S6T', 'protein stability index', 3.93),
  ('E9I', 'protein stability index', 3.33),
  ('P10A', 'protein stability index', 4.07),
  ('E14R', 'protein stability index', 3.62),
  ('S6M', 'protein stability index', 3.57),
  ('L11F', 'protein stability index', 3.75),
  ('P10V', 'protein stability index', 3.73),
  ('S5L', 'protein stability index', 3.02),
  ('C19N', 'protein stability index', 3.67),
  ('E17H', 'protein stability index', 3.44),
  ('S5Q', 'protein stability index', 3.6),
  ('L11T', 'protein stability index', 4.11),
  ('P1K', 'protein stability index', 2.47),
  ('E9Y', 'protein stability index', 2.77),
  ('S18M', 'protein stability index', 3.06),
  ('R24V', 'protein stability index', 4.34),
  ('C20P', 'protein stability index', 3.06),
  ('S6Q', 'protein stability index', 4.11),
  ('G13T', 'protein stability index', 3.75),
  ('C3S', 'protein stability index', 5.22),
  ('N12R', 'protein stability index', 3.48),
  ('S4I', 'protein stability index', 3.81),
  ('N12K', 'protein stability index', 2.97),
  ('Y16Q', 'protein stability index', 4.55),
  ('S6G', 'protein stability index', 3.53),
  ('S18F', 'protein stability index', 2.89),
  ('C19M', 'protein stability index', 3.49),
  ('C3Q', 'protein stability index', 5.4),
  ('G13K', 'protein stability index', 4.05),
  ('E14K', 'protein stability index', 2.9),
  ('C19Q', 'protein stability index', 4.09),
  ('S18N', 'protein stability index', 3.68),
  ('C20T', 'protein stability index', 3.91),
  ('C3R', 'protein stability index', 4.23),
  ('C20Q', 'protein stability index', 3.54),
  ('E9L', 'protein stability index', 2.69),
  ('P1A', 'protein stability index', 4.21),
  ('E17K', 'protein stability index', 3.25),
  ('C20Y', 'protein stability index', 3.38),
  ('E14F', 'protein stability index', 2.71),
  ('C3M', 'protein stability index', 5.05),
  ('C2V', 'protein stability index', 5.21),
  ('E17L', 'protein stability index', 2.37),
  ('G13I', 'protein stability index', 3.42),
  ('S6D', 'protein stability index', 3.92),
  ('G13E', 'protein stability index', 5.17),
  ('R24A', 'protein stability index', 4.81),
  ('S6C', 'protein stability index', 3.63),
  ('T22P', 'protein stability index', 3.13),
  ('C2E', 'protein stability index', 4.77),
  ('L11R', 'protein stability index', 3.93),
  ('C20H', 'protein stability index', 3.32),
  ('T22D', 'protein stability index', 4.61),
  ('S6A', 'protein stability index', 3.22),
  ('L11G', 'protein stability index', 3.81),
  ('P1W', 'protein stability index', 2.77),
  ('S23H', 'protein stability index', 3.6);
